Experiment: Unbound intrinsic clearance in rat hepatocytes
Type: ADME, cell-based, Hepatocyte
Measured Parameter: CL free (mL/min/kg)

O=C(NC1C[C@H](c2cccc(CO)c2)Oc2ccccc21)C1(c2ccc3c(c2)OC(F)(F)O3)CC1 (stereo partly specified)	7850

(A) O=C(O)c1ccc([C@H]2C[C@@H](NC(=O)C3(c4ccc5c(c4)OC(F)(F)O5)CC3)c3ccc(OC(F)F)cc3O2)cc1
(B) COc1ccc2c(c1)[C@H](NC(=O)C1(c3ccc4c(c3)OC(F)(F)O4)CC1)C[C@H](c1cccc(C(=O)O)c1)O2
(C) Cc1ccc2c(c1)O[C@@H](c1cccc(C(=O)O)c1)C[C@H]2NC(=O)C1(c2ccc3c(c2)OC(F)(F)O3)CC1
Order the records so the highest CL free appears first and the lowest last. // list labels; follow requested order
C, A, B

(A) O=C(O)c1cccc([C@H]2C[C@@H](NC(=O)C3(c4ccc5c(c4)OC(F)(F)O5)CC3)c3ccc(F)cc3O2)c1
(B) O=C(O)c1cccc([C@H]2C[C@@H](NC(=O)C3(c4ccc5c(c4)OC(F)(F)O5)CC3)c3ccc(OC(F)F)cc3O2)c1
Two entries are listed, A and B . Which one carries the higher CL free? Please respond with the label that marks your chosen entry.
B

(I) COc1ccc2c(c1)O[C@@H](c1ccc(C(=O)O)cc1)C[C@H]2NC(=O)C1(c2ccc3c(c2)OC(F)(F)O3)CC1
(II) COc1ccc2c(c1)O[C@@H](c1ccc(OC)c(OC)c1)C[C@H]2NC(=O)C1(c2ccc3c(c2)OC(F)(F)O3)CC1
Please indicate which item has the smaller measured CL free: I versus II Please respond with the label that marks your chosen entry.
I

(1) O=C(O)c1cccc([C@H]2C[C@@H](NC(=O)C3(c4ccc5c(c4)OC(F)(F)O5)CC3)c3ccc(C(F)(F)F)cc3O2)c1
(2) COc1ccc2c(c1)O[C@@H](c1cccc(C(=O)O)c1)C[C@H]2NC(=O)C1(c2ccc3c(c2)OC(F)(F)O3)CC1
(3) COc1ccc2c(c1)O[C@H](c1ccc(OC)c(OC)c1)C[C@@H]2NC(=O)C1(c2ccc3c(c2)OC(F)(F)O3)CC1
Rank ascending by CL free. // list labels; follow requested order
1, 2, 3
(1: 83 mL/min/kg, 2: 283 mL/min/kg, 3: 12900 mL/min/kg)

----------
Experiment: Half life in rat at 1 mg/kg, iv
Format: ADME, organism-based
Stated Conditions: in vivo
Measured Parameter: half-life (h)

O=C(O)c1ccc([C@H]2C[C@@H](NC(=O)C3(c4ccc5c(c4)OC(F)(F)O5)CC3)c3ccc(OC(F)F)cc3O2)cc1	2.7

(I) COc1ccc2c(c1)O[C@@H](c1ccc(C(=O)O)cc1)C[C@H]2NC(=O)C1(c2ccc3c(c2)OC(F)(F)O3)CC1
(II) COc1ccc2c(c1)O[C@@H](c1cccc(C(=O)O)c1)C[C@H]2NC(=O)C1(c2ccc3c(c2)OC(F)(F)O3)CC1
Please indicate which item has the smaller measured half-life: I versus II Please respond with the label that marks your chosen entry.
II
(II: 2.8 h, I: 4.4 h)

----------
Assayed System: Cystic fibrosis transmembrane conductance regulator (Homo sapiens, UniProt P13569, F508DEL)
Sequence (P13569 as listed by the source): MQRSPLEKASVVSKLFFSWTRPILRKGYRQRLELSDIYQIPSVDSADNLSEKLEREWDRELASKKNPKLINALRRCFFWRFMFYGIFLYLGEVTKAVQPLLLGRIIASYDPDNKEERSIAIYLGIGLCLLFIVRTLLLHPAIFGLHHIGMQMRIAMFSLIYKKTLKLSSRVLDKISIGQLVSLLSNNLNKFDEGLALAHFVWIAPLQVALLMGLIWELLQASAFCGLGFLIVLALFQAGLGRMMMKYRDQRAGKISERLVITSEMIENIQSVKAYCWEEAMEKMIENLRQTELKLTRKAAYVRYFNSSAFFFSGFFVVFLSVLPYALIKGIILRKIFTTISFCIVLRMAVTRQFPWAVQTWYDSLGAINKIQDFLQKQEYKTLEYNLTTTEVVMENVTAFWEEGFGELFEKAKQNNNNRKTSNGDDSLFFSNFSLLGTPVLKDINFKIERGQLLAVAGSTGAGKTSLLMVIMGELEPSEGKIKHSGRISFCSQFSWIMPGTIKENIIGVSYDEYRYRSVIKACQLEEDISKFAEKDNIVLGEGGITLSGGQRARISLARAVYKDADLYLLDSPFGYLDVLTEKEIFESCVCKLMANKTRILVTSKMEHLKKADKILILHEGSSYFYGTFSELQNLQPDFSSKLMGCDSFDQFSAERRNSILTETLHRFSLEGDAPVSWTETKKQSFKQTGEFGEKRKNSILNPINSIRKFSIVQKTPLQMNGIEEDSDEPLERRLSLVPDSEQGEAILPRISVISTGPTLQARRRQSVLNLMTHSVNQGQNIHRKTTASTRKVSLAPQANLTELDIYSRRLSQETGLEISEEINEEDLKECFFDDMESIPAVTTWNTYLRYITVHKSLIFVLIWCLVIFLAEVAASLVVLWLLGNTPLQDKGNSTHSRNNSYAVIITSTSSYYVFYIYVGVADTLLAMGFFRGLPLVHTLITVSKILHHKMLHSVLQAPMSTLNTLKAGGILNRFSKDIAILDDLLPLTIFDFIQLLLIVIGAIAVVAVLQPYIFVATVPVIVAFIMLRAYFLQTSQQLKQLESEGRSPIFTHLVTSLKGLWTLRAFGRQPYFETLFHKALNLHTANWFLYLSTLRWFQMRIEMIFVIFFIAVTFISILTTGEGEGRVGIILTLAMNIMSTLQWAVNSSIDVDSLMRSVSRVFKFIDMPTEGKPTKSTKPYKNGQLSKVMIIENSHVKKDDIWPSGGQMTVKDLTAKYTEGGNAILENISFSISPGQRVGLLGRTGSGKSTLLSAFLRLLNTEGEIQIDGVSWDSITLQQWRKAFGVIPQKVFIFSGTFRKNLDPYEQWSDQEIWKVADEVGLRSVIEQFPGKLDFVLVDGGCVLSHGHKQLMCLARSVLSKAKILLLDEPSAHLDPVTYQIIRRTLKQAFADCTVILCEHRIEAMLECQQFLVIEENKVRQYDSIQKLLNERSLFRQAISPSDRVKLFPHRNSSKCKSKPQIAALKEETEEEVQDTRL
Experiment: Corrector activity at CFTR F508del/F508del mutant in primary HBE cells assessed as increase in chloride ion current across apical membrane measured 18 to 24 hrs post compound treatment on basolateral side of cells in presence of channel potentiator GLPG1837 by trans-epithelial current clamp method
Measured Parameter: EC50 (nM)

O=C(O)c1cccc([C@H]2C[C@@H](NC(=O)C3(c4ccc5c(c4)OC(F)(F)O5)CC3)c3ccc(C(F)(F)F)cc3O2)c1	87

(1) O=C(O)c1cccc([C@H]2C[C@@H](NC(=O)C3(c4ccc5c(c4)OC(F)(F)O5)CC3)c3ccc(OC(F)F)cc3O2)c1
(2) O=C(O)c1cccc([C@H]2C[C@@H](NC(=O)C3(c4ccc5c(c4)OC(F)(F)O5)CC3)c3ccc(F)cc3O2)c1
Two entries are listed, 1 and 2 . Which one carries the higher EC50? Please respond with the label that marks your chosen entry.
2

----------
Experiment: Lipophilicity, log D of the compound by HPLC method
Type: physicochemical
Measured Parameter: logD

O=C(O)c1cccc([C@H]2C[C@@H](NC(=O)C3(c4ccc5c(c4)OC(F)(F)O5)CC3)c3ccc(OC(F)F)cc3O2)c1	4.02
O=C(NC1CC(c2ccc(F)cc2)Oc2ccccc21)C1(c2ccc3c(c2)OC(F)(F)O3)CC1 (centres undefined)	5.3
O=C(O)c1cccc([C@H]2C[C@@H](NC(=O)C3(c4ccc5c(c4)OC(F)(F)O5)CC3)c3ccc(C(F)(F)F)cc3O2)c1	5.02
COc1ccc2c(c1)OC(c1ccc(OC)c(OC)c1)CC2NC(=O)C1(c2ccc3c(c2)OC(F)(F)O3)CC1 (centres undefined)	5
